Reference for the values: the RNAGym collection of RNA variant scans (doi:10.7554/elife.90254)

B1: LINE1-mini (parent)
chain: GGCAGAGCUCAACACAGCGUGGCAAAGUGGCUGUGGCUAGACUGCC

variants of: B1; assay: self-cleavage, relative activity (ratio to wild type); higher = more cleavage; in vitro, sequencing; the parent is a self-cleaving ribozyme
endpoint: self-cleavage
// return a plain number; no unit text

Some solved cases for reference:
- sequence entry: "GGCGGAGCUCAACACAGCGUGGCAAAGUGGCUGUGGCGAGACUGCC [A4G U38G]"
  self-cleavage: 0.04
- sequence entry: "GGUAGAGCUCAACACAGCGUGGCAAAGUGGCUGUGGCUAGACUGCA [C3U C46A]"
  self-cleavage: 0.18
- sequence entry: "GGCAUAGCUCUACACAGCGUGGCAAAGUGGCUGUGGCUAGACUGCC [G5U A11U]"
  self-cleavage: 0.04
- sequence entry: "GGCAGAGCUCAACACAGCGUGGCAACGUGGCUGUGGCUAGACUGUC [A26C C45U]"
  self-cleavage: 1.17
- sequence entry: "GGCAGAGCUCAACACAGCGUGGCAAAGUGGCUGUGGCUCAACUGCC [A39C G40A]"
  self-cleavage: 0.08

Hello, please tell me recorded self-cleavage for this one: GGCAGAGCUCAACACAGCGUAGCAAAGUGGCUUUGGCUAGACUGCC [G21A G33U] 0.26

Hello, please tell me recorded self-cleavage for this one: GGCAGAGCUCAACGCAGCGUGGCAAAGUGGCUGUAGCUAGACUGCC [A14G G35A] 0.07

Hello, please tell me recorded self-cleavage for this one: GGCAGAGCUCAACACAGCGUGGCAAACUGGCUGUGGCUAGAAUGCC [G27C C42A] 0.07

Hello, please tell me recorded self-cleavage for this one: GGCAGAGCUCAACACGGCGUGGCAAUGUGGCUGUGGCUAGACUGCC [A16G A26U] 0.52

Hello, please tell me recorded self-cleavage for this one: GGCAGAGCUCAACACAGCGUGGCAAAGUGGCUGUGGCUAGACAGCG [U43A C46G] 0.14

Hello, please tell me recorded self-cleavage for this one: GGCAGCGCUCAACACAGCGUGGCAAAGUGGCUGUGGCUAGACUGUC [A6C C45U] 0.7

Hello, please tell me recorded self-cleavage for this one: GGCAGAGCUCAACACAGCGUGGCAACGUGGCUGUGGAUAGACUGCC [A26C C37A] 0.05

Hello, please tell me recorded self-cleavage for this one: GGCAAAGCUCAACACAGCGUGGAAAAGUGGCUGUGGCUAGACUGCC [G5A C23A] 0.14
